All values here come from paper PMC9601805.

assay_overview: Differential scanning fluorimetry (DSF), apparent Tm of YggS forms
Type: physicochemical
reported_conditions: 2 μM protein + 300 μM PLP
outcome_measure: T m (°C) Apo + 300 μM PLP
// return numeric value only (unit: °C, not printed)

Please review the following examples before continuing.
- molecule: "K36A/K38A/K233A/K234A: E. coli YggS triple lysine variant (protein, left off: His-tag, C-terminal, state not stated, E. coli YggS triple lysine variant) MNDIAHNLAQVRDKISAAATRCGRSPEEITLLAVSATAPASAIAEAIDAGQRQFGENYVQEGVDKIRHFQELGVTGLEWHFIGPLQSNKSRLVAEHFDWCHTIDRLRIATRLNDQRPAELPPLNVLIQINISDENSKSGIQLAELDELAAAVAELPRLRLRGLMAIPAPESEYVRQFEVARQMAVAFAGLKTRYPHIDTLSLGMSDDMEAAIAAGSTMVRIGTAIFGARDYSAA"
  T m (°C) Apo + 300 μM PLP: 69.6
- molecule: "K36A/K38A/K137A/K233A/K234A: E. coli YggS quadruple lysine variant (protein, left off: His-tag, C-terminal, state not stated, E. coli YggS quadruple lysine variant) MNDIAHNLAQVRDKISAAATRCGRSPEEITLLAVSATAPASAIAEAIDAGQRQFGENYVQEGVDKIRHFQELGVTGLEWHFIGPLQSNKSRLVAEHFDWCHTIDRLRIATRLNDQRPAELPPLNVLIQINISDENSASGIQLAELDELAAAVAELPRLRLRGLMAIPAPESEYVRQFEVARQMAVAFAGLKTRYPHIDTLSLGMSDDMEAAIAAGSTMVRIGTAIFGARDYSAA"
  T m (°C) Apo + 300 μM PLP: 69.1
- molecule: "K36A/K38A/K137A: E. coli YggS triple lysine variant (protein, left off: His-tag, C-terminal, state not stated, E. coli YggS triple lysine variant) MNDIAHNLAQVRDKISAAATRCGRSPEEITLLAVSATAPASAIAEAIDAGQRQFGENYVQEGVDKIRHFQELGVTGLEWHFIGPLQSNKSRLVAEHFDWCHTIDRLRIATRLNDQRPAELPPLNVLIQINISDENSASGIQLAELDELAAAVAELPRLRLRGLMAIPAPESEYVRQFEVARQMAVAFAGLKTRYPHIDTLSLGMSDDMEAAIAAGSTMVRIGTAIFGARDYSKK"
  T m (°C) Apo + 300 μM PLP: 75.2
- molecule: "K36A/K137A/K233A/K234A: E. coli YggS triple lysine variant (protein, left off: His-tag, C-terminal, state not stated, E. coli YggS triple lysine variant) MNDIAHNLAQVRDKISAAATRCGRSPEEITLLAVSATKPASAIAEAIDAGQRQFGENYVQEGVDKIRHFQELGVTGLEWHFIGPLQSNKSRLVAEHFDWCHTIDRLRIATRLNDQRPAELPPLNVLIQINISDENSASGIQLAELDELAAAVAELPRLRLRGLMAIPAPESEYVRQFEVARQMAVAFAGLKTRYPHIDTLSLGMSDDMEAAIAAGSTMVRIGTAIFGARDYSAA"
  T m (°C) Apo + 300 μM PLP: 66.0

Continue with the molecule presented below.
T m (°C) Apo + 300 μM PLP reported for this molecule K137A: E. coli YggS single lysine variant K137A (protein, left off: His-tag, C-terminal, state not stated) MNDIAHNLAQVRDKISAAATRCGRSPEEITLLAVSKTKPASAIAEAIDAGQRQFGENYVQEGVDKIRHFQELGVTGLEWHFIGPLQSNKSRLVAEHFDWCHTIDRLRIATRLNDQRPAELPPLNVLIQINISDENSASGIQLAELDELAAAVAELPRLRLRGLMAIPAPESEYVRQFEVARQMAVAFAGLKTRYPHIDTLSLGMSDDMEAAIAAGSTMVRIGTAIFGARDYSKK : 82.5
